- target.or.system: human recombinant HDAC6 (Homo sapiens)
- Construct: purchased Calbiochem Inc. 382180
- assay: HDAC6 enzyme activity inhibition (HDAC Fluorimetric Drug Discovery Kit)
- Format: biochemical
- condition.label: human recombinant HDAC6; IC50 calculated with GraphPad Prism
measured.property: IC50 (nM)
Answers are plain numbers, in nM.

Take a look at these entries with their results.
{"smiles.record": "CC(C)N1CC(c2cccc(-c3cn(Cc4ccc(-c5nnc(C(F)F)o5)cc4F)nn3)c2)C1", "IC50 [nM]": 65.8}
{"smiles.record": "FC(F)c1nnc(-c2ccc(Cn3cc(C4=CCCCC4)nn3)nc2)o1", "IC50 [nM]": 64.6}
{"smiles.record": "Fc1cc(-c2nnc(C(F)F)o2)ccc1Cn1cc(-c2ccc(F)c(N3CCN(C4COC4)CC3)c2)nn1", "IC50 [nM]": 91.2}

Okay, now this molecule:
Ask: Recorded IC50 for FC(F)c1nnc(-c2ccc(Cn3cc(C4CCCC4)nn3)nc2)o1 , please?
Result: 79.3

###

- target.or.system: human recombinant HDAC6 (Homo sapiens, UniProt Q9UBN7)
- Construct: purchased Calbiochem Inc. 382180
- Sequence (Q9UBN7 whole entry): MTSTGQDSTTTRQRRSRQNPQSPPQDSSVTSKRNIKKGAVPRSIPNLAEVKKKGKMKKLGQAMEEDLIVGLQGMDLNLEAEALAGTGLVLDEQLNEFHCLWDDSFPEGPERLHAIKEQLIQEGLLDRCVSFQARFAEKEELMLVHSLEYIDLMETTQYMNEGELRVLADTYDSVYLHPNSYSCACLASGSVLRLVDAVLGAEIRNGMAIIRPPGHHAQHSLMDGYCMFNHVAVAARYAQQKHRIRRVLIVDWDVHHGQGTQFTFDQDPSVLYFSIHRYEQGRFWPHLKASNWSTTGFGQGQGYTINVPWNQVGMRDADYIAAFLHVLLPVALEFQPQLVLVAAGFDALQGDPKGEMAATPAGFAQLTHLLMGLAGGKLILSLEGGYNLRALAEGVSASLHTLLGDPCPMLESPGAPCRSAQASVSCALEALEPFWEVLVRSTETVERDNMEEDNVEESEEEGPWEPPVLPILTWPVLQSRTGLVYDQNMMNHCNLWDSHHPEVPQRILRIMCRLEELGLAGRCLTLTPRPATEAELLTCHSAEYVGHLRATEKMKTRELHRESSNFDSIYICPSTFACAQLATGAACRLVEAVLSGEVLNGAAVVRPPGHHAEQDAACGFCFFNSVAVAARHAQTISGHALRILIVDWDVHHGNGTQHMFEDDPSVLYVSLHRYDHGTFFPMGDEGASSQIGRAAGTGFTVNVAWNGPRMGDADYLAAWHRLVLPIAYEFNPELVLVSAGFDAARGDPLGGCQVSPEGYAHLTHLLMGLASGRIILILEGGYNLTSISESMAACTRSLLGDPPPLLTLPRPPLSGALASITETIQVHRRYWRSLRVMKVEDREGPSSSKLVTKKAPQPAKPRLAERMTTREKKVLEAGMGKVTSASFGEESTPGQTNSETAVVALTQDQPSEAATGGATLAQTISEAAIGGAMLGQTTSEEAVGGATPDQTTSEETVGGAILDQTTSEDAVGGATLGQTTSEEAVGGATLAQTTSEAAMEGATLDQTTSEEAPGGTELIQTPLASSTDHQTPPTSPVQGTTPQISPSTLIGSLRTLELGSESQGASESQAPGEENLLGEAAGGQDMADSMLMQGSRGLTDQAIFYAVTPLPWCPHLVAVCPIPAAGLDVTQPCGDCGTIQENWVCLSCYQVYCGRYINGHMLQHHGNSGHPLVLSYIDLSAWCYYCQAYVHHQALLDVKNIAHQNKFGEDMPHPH
- assay: HDAC6 enzyme activity inhibition (HDAC Fluorimetric Drug Discovery Kit)
- Type: biochemical
- condition.label: human recombinant HDAC6, same protocol as HDAC1
Exercise: for every item that follows, state its recorded IC50.
Give bare numbers, in µM.

{"smiles.record": "Fc1cc(-c2nnc(C(F)F)o2)ccc1Cn1cc(-c2ccccc2CN2CC3(COC3)C2)nn1", "target.or.system": "human recombinant HDAC6 (Homo sapiens, UniProt Q9UBN7)", "IC50 / µM": 0.222}
{"smiles.record": "CCN1Cc2cccc(-c3cn(Cc4ccc(-c5nnc(C(F)F)o5)cc4)nn3)c2C1", "target.or.system": "human recombinant HDAC6 (Homo sapiens, UniProt Q9UBN7)", "IC50 / µM": 0.111}
{"smiles.record": "CC(C)N1CCc2cc(-c3cn(Cc4ccc(-c5nnc(C(F)F)o5)cc4F)nn3)sc2C1", "target.or.system": "human recombinant HDAC6 (Homo sapiens, UniProt Q9UBN7)", "IC50 / µM": 0.137}
{"smiles.record": "CC1CCN(Cc2ccc(-c3cn(Cc4ncc(-c5nnc(C(F)F)o5)cc4F)nn3)s2)CC1", "target.or.system": "human recombinant HDAC6 (Homo sapiens, UniProt Q9UBN7)", "IC50 / µM": 0.0507}
{"smiles.record": "FC(F)c1nnc(-c2ccc(Cn3cc(-c4cnc5[nH]ccc5c4)nn3)cc2)o1", "target.or.system": "human recombinant HDAC6 (Homo sapiens, UniProt Q9UBN7)", "IC50 / µM": 0.0088}
{"smiles.record": "CN(C)Cc1cccc(-c2cn(Cc3ncc(-c4nnc(C(F)F)o4)cc3F)nn2)c1", "target.or.system": "human recombinant HDAC6 (Homo sapiens, UniProt Q9UBN7)", "IC50 / µM": 0.0901}

Hi! Can you tell me IC50 for each of these compounds?
1. Fc1cc(-c2nnc(C(F)F)o2)cnc1Cn1cc(-c2ccc(CN3CCCC3)cc2)nn1
2. CN(C)C1CCN(Cc2ccc(-c3cn(Cc4ccc(-c5nnc(C(F)F)o5)cc4)nn3)cc2)CC1
3. Fc1cc(-c2nnc(C(F)F)o2)ccc1Cn1cc(-c2ccc(CN3CC[C@@H](F)C3)s2)nn1

Result:
0.022
0.0646
0.0567
